Molecular target: JAK2 (Homo sapiens (Human))
Sequence (O60674 849-1124): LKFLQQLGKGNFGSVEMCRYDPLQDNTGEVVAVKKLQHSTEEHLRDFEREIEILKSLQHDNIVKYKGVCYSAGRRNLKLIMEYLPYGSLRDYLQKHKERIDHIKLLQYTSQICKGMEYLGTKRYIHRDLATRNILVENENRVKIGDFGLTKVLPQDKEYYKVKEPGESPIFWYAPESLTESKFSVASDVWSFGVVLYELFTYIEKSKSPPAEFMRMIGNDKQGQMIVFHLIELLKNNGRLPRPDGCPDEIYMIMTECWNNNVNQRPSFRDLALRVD
Assay: Jak biochemical HTRF assay, JAK2
Details: recombinant purified GST-tagged catalytic domain; HTRF format; [ATP] 8.5 μM
pIC50: −log10 of the molar value.
Everything with pIC50 lower than 7 is label 0; everything else, including exactly 7, is label 1.

Task: Kindly determine if pIC50 recorded for N#C[C@@H]1CN(C(=O)OC2CCCCC2)CC[C@@H]1n1cc(C(N)=O)c(Nc2ccc(F)cc2)n1 (racemic) is above or exactly 7.
Result: label 0

Task: Kindly determine if pIC50 recorded for CC(OC(=O)N1CC[C@@H](n2cc(C(N)=O)c(Nc3ccc(F)cc3)n2)[C@H](C#N)C1)C1CC1 (mixture of isomers) is above or exactly 7.
Result: label 0

Task: Kindly determine if pIC50 recorded for N#C[C@@H]1CCN(Cc2cc(F)ccn2)C[C@H]1n1cc(C(N)=O)c(Nc2ccc(F)cc2)n1 (racemic) is above or exactly 7.
Result: label 1

Task: Kindly determine if pIC50 recorded for CN(C)CC(C)(C)COC(=O)N1CC[C@@H](C#N)C(n2cc(C(N)=O)c(Nc3ccc(F)cc3)n2)C1 (mixture of isomers) is above or exactly 7.
Result: label 0

Task: Kindly determine if pIC50 recorded for N#C[C@@H]1CN(C(=O)OC2Cc3ccccc3C2)CC[C@H]1n1cc(C(N)=O)c(Nc2ccc(F)cc2)n1 (racemic) is above or exactly 7.
Result: label 0

Task: Kindly determine if pIC50 recorded for N#C[C@@H]1CN(C(=O)OCCc2ccccc2)CC[C@@H]1n1cc(C(N)=O)c(Nc2ccc(F)cc2)n1 (racemic) is above or exactly 7.
Result: label 0

Task: Kindly determine if pIC50 recorded for N#C[C@@H]1CCN(Cc2cocn2)C[C@H]1n1cc(C(N)=O)c(Nc2ccc(F)cc2)n1 (racemic) is above or exactly 7.
Result: label 1

Task: Kindly determine if pIC50 recorded for CN1CCC(COC(=O)N2CC[C@@H](n3cc(C(N)=O)c(Nc4ccc(F)cc4)n3)[C@H](C#N)C2)CC1 (racemic) is above or exactly 7.
Result: label 0

Task: Kindly determine if pIC50 recorded for N#C[C@@H]1CN(Cc2cscn2)CC[C@H]1n1cc(C(N)=O)c(Nc2ccc(F)cc2)n1 (racemic) is above or exactly 7.
Result: label 1

Task: Kindly determine if pIC50 recorded for CC(C)(C)OC(=O)N1CC[C@H](C#N)C(n2cc(C(N)=O)c(Nc3ccc(F)cc3)n2)C1 (mixture of isomers) is above or exactly 7.
Result: label 1

Task: Kindly determine if pIC50 recorded for N#C[C@@H]1CN(C(=O)OCCF)CC[C@@H]1n1cc(C(N)=O)c(Nc2ccc(F)cc2)n1 (racemic) is above or exactly 7.
Result: label 0

----------
So I've got a bunch of compounds here, and I need their pIC50 values.
Target: JAK2 (Homo sapiens (Human))
Experiment: Jak biochemical HTRF assay, JAK2
Conditions: recombinant purified GST-tagged catalytic domain; HTRF format; [ATP] 8.5 μM
From the text: Jak Biochemical HTRF Assay Protocol Subsequent reagent additions employed an Agilent Bravo.
pIC50: −log10 of the molar value.

Task: Given the entry CC(OC(=O)N1CC[C@H](n2cc(C(N)=O)c(Nc3ccc(F)cc3)n2)[C@H](C#N)C1)C(F)(F)F (mixture of isomers) [Example 5-43] , report its measured pIC50.
Result: < 5.83

Task: Given the entry CC1(COC(=O)N2CC[C@H](n3cc(C(N)=O)c(Nc4ccc(F)cc4)n3)[C@H](C#N)C2)COC1 (racemic) [Example 5-45] , report its measured pIC50.
Result: < 5.83

Task: Given the entry CN(C)CC(C)(C)COC(=O)N1CC[C@@H](n2cc(C(N)=O)c(Nc3ccc(F)cc3)n2)[C@H](C#N)C1 (racemic) [Example 5-21] , report its measured pIC50.
Result: < 5.83

Task: Given the entry CN1CCC(OC(=O)N2CC[C@@H](n3cc(C(N)=O)c(Nc4ccc(F)cc4)n3)[C@H](C#N)C2)CC1 (racemic) [Example 5-26] , report its measured pIC50.
Result: < 5.83
